- method: Fibril dimensions measured from TEM images
- Format: physicochemical
- condition.notes: physiological conditions, TEM
Where a SMILES comes first, the peptide text is derived from it. [ ]: non-standard residue; d: D form. Orn = NCCC[C@H](N)C(=O)O
endpoint.name: ww, width of the fibril at its widest point

Measured ww, width of the fibril at its widest point, CC(=O)N[C@@H](CC(N)=O)C(=O)N[C@@H](CC(N)=O)C(=O)N[C@@H](CCCNC(=N)N)C(=O)N[C@@H](Cc1ccccc1)C(=O)N[C@@H](CCCN)C(=O)N[C@@H](Cc1c[nH]c2ccccc12)C(=O)N[C@@H](CCCN)C(=O)N[C@@H](Cc1ccccc1)C(=O)N[C@@H](CCC(=O)O)C(=O)N[C@@H](CC(N)=O)C(=O)N[C@@H](CC(N)=O)C(N)=O [Peptide P11-16, CH3CO-N-N-R-F-O-W-O-F-E-N-N-NH2] (Ac-NNRF[Orn]W[Orn]FENN-NH2) : 11-20 nm

###

- method: Fibril dimensions measured from TEM images
- Format: physicochemical
- condition.notes: physiological conditions, TEM
Where a SMILES comes first, the peptide text is derived from it. [ ]: non-standard residue; d: D form. Orn = NCCC[C@H](N)C(=O)O
endpoint.name: ww, width of the fibril at its widest point

Measured ww, width of the fibril at its widest point, CC(=O)N[C@H](C(=O)N[C@H](C(=O)N[C@@H](CCCNC(=N)N)C(=O)N[C@@H](Cc1ccccc1)C(=O)N[C@@H](CCCN)C(=O)N[C@@H](Cc1c[nH]c2ccccc12)C(=O)N[C@@H](CCCN)C(=O)N[C@@H](Cc1ccccc1)C(=O)N[C@@H](CCC(=O)O)C(=O)N[C@H](C(=O)N[C@H](C(N)=O)[C@@H](C)O)[C@@H](C)O)[C@@H](C)O)[C@@H](C)O [Peptide P11-18, CH3CO-T-T-R-F-O-W-O-F-E-T-T-NH2] (Ac-TTRF[Orn]W[Orn]FETT-NH2) : 11-21 nm

###

- method: Fibril dimensions measured from TEM images
- Assay type: physicochemical
- condition.notes: physiological conditions, TEM
Where a SMILES comes first, the peptide text is derived from it. [ ]: non-standard residue; d: D form. Orn = NCCC[C@H](N)C(=O)O
endpoint.name: l, fibril persistence length

Measured l, fibril persistence length, CC(=O)N[C@@H](CCC(N)=O)C(=O)N[C@@H](CCC(N)=O)C(=O)N[C@@H](CCCNC(=N)N)C(=O)N[C@@H](CCC(N)=O)C(=O)N[C@@H](CCC(=O)O)C(=O)N[C@@H](CCC(N)=O)C(=O)N[C@@H](CCC(=O)O)C(=O)N[C@@H](CCC(N)=O)C(=O)N[C@@H](CCC(=O)O)C(=O)N[C@@H](CCC(N)=O)C(=O)N[C@@H](CCC(N)=O)C(N)=O [Peptide P11-20, CH3CO-Q-Q-R-Q-E-Q-E-Q-E-Q-Q-NH2] (Ac-QQRQEQEQEQQ-NH2) : 0.4-1.5 μm

Measured l, fibril persistence length, CC(=O)N[C@@H](CCC(N)=O)C(=O)N[C@@H](CCC(N)=O)C(=O)N[C@@H](CCCNC(=N)N)C(=O)N[C@@H](Cc1ccccc1)C(=O)N[C@@H](CCCN)C(=O)N[C@@H](Cc1c[nH]c2ccccc12)C(=O)N[C@@H](CCCN)C(=O)N[C@@H](Cc1ccccc1)C(=O)N[C@@H](CCC(=O)O)C(=O)N[C@@H](CCC(N)=O)C(=O)N[C@@H](CCC(N)=O)C(N)=O [Peptide P11-8, CH3CO-Q-Q-R-F-O-W-O-F-E-Q-Q-NH2] (Ac-QQRF[Orn]W[Orn]FEQQ-NH2) : 0.8-2.5 μm
